Kindly state GI50 for each of the entries shown.
system: HCT-116; experiment: NCI tumour cell line growth inhibition, 48 h
Active and inactive are the calls of the source. Cut-off read from the data, not from the text of the source: active = GI50 up to about 1.1 µM and inactive = higher.

## Task Return reported GI50; argument: `CCCCCCCCCCNC(=S)OCCCC`
## Result 18.3 µM (inactive)

## Task // next record `N#CC(C#N)=C1CCCS(=O)(=O)c2ccccc21`
## Result > 100 µM (inactive)

## Task // next record `C[C@]12C=CC(=O)C=C1CC[C@H]1[C@@H]3C[C@@H](O)[C@](O)(C(=O)CO)[C@@]3(C)C[C@H](O)[C@@]12F`
## Result > 100 µM (inactive)

## Task // next record CC1=Nc2c(ccc3c2C(=O)c2ccccc2C3=O)NC(c2cccc3c2CCC3)C1 (stereo not given)
## Result 66.2 µM (inactive)

## Task // next record `Cc1cc(=O)oc2c(OS(C)(=O)=O)c(OS(C)(=O)=O)ccc12`
## Result > 100 µM (inactive)

## Task // next record Cc1cn(C2CCC(/C=N\O)O2)c(=O)[nH]c1=O (stereo not given)
## Result > 100 µM (inactive)

## Task // next record `COc1cc(/C=C\c2nnc(/C=C\c3ccc(O)c(OC)c3)s2)ccc1O`
## Result 2.36 µM (inactive)

## Task // next record CCOC(=O)c1ccc(/N=N/N(C)C(=O)C(C)N)cc1 (stereo not given)
## Result > 100 µM (inactive)

## Task // next record `O=C(NC1CCN(Cc2ccccc2)CC1)c1cccc(I)c1`
## Result 15.3 µM (inactive)

## Task // next record NC(CCC(=O)NC(CSCC1C(=O)Nc2ccccc21)C(=O)NCC(=O)O)C(=O)O (stereo not given)
## Result 4.89 µM (inactive)

* * *

tested on: KM12; experiment: NCI tumour cell line growth inhibition, 48 h
Active and inactive are the calls of the source. No stated cut-off is given here; in the data, active = GI50 up to about 1.1 µM and inactive = higher.
Property: GI50

## Task Return reported GI50; argument: CC1=C(CO)C(=O)O[C@@H]([C@@H](CO)[C@H]2CCC3C4C[C@@H](O)[C@@]5(O)CC=CC(=O)[C@]5(C)C4CC[C@@]32C)C1 (some centres undefined)
## Result 43.3 µM (inactive)

## Task // next record CN1CCC(C(O)(c2ccccc2)c2ccc(Br)cc2)CC1 (centres undefined)
## Result 18.6 µM (inactive)

## Task // next record `CCCCc1c2c(nc3c1CC/C(=C\c1ccccc1)C3=O)CCCC2`
## Result 3.85 µM (inactive)

## Task // next record `CCOC(=O)c1c(-c2ccccc2)nc2ccccc2c1O`
## Result > 100 µM (inactive)

## Task // next record CC(C)CCC[C@@H](C)C1CCC2[C@@H]3CC=C4C[C@@H](C(=O)NCCN(C)C)CC[C@]4(C)C3CC[C@@]21C (some centres undefined)
## Result 14.9 µM (inactive)

## Task // next record `O=C(O)CCCc1ccc2c(c1)CC1(C2)Cc2cc3c(cc2C1)CCCC3`
## Result 19 µM (inactive)

## Task // next record `O=C1NC(=S)NC(=O)C1C(c1ccc([N+](=O)[O-])cc1)C1C(=O)NC(=S)NC1=O.c1ccncc1`
## Result > 100 µM (inactive)

## Task // next record `O=C(NC1CCN(Cc2ccccc2)CC1)c1cccc(I)c1`
## Result 16.5 µM (inactive)

## Task // next record CC(C)(C)C1CCC(=O)C(C(O)CC2CC(=O)N(c3ccccc3)C(=O)C2)C1 (centres undefined)
## Result > 100 µM (inactive)
